Assay: Spectral characteristics: molar extinction coefficient and specific absorbance
Type: physicochemical
Details: ethyl acetate, 10 μg/ml
endpoint label: Wavelength of maximum specific absorbance UVB

# molecule, endpoint value
rows = [
    ("COc1ccc(-c2nnc(-c3cc(O)c(O)c(O)c3)nc2-c2ccc(OC)cc2)cc1", "at 310"),
    ("CCCCC(CC)COc1ccc(-c2nc(-c3ccc(OC)cc3)nc(-c3ccc(OCC(CC)CCCC)cc3O)n2)c(O)c1 (stereo not drawn) [Tinosorb S ®, reference compound]", "at 310"),
    ("COc1ccc(-c2nnc(-c3ccc(C#N)cc3)nc2-c2ccc(OC)cc2)cc1", 300),
    ("COc1ccc(-c2nnc(-c3ccc(OC)cc3)c(-c3ccc(OC)cc3)n2)cc1", "at 310"),
    ("CCCCCCCCCCCCOc1ccc(-c2nnc(-c3ccc(OC)cc3)c(-c3ccc(OC)cc3)n2)cc1", 305),
    ("CCCCC(CC)COC(=O)C=Cc1ccc(OC)cc1 (stereo not drawn) [Parsol MCX ®, reference compound]", "at 310"),
]

====

Test: Spectral characteristics: molar extinction coefficient and specific absorbance
Type: physicochemical
Details: ethyl acetate, 10 μg/ml
endpoint label: Wavelength of maximum molar extinction coefficient UVA

# compound, endpoint value
data = [
    ("Oc1ccccc1-c1nnc(-c2ccccc2)c(-c2ccccc2)n1 [JR67]", "at 330"),
    ("Oc1ccc(-c2nnc(-c3ccccc3)c(-c3ccccc3)n2)cc1 [JR68]", "at 330"),
    ("CCCCC(CC)COc1ccc(-c2nc(-c3ccc(OC)cc3)nc(-c3ccc(OCC(CC)CCCC)cc3O)n2)c(O)c1 (stereo not shown) [Tinosorb S ®, reference compound]", "at 345"),
    ("CC(C)(C)CC(C)(C)c1cc(Cc2cc(C(C)(C)CC(C)(C)C)cc(-n3nc4ccccc4n3)c2O)c(O)c(-n2nc3ccccc3n2)c1 [Tinosorb M ®, reference compound]", "at 345"),
    ("COc1ccc(-c2nnc(N)nc2-c2ccc(OC)cc2)cc1 [JR77]", "at 360"),
    ("COc1ccc(C(=O)CC(=O)c2ccc(C(C)(C)C)cc2)cc1 [Parsol 1789 ®, reference compound]", "at 360"),
]

====

Test: Spectral characteristics: molar extinction coefficient and specific absorbance
Format: physicochemical
Details: ethyl acetate, 10 μg/ml
// returns Condition not met unless Maximum molar extinction coefficient UVA is strictly below 20000 M⁻¹ cm⁻¹, in which case Condition met

# compound, class
records = [
    ("COc1ccc(-c2nnc(N)nc2-c2ccc(OC)cc2)cc1", "Condition met"),
    ("COc1ccc(-c2nnc(-c3cccc(C#N)c3)nc2-c2ccc(OC)cc2)cc1", "Condition not met"),
    ("COc1ccc(C(=O)CC(=O)c2ccc(C(C)(C)C)cc2)cc1 [Parsol 1789 ®, reference compound]", "Condition not met"),
    ("COc1ccc(-c2nnc(-c3ccccc3C#N)nc2-c2ccc(OC)cc2)cc1", "Condition not met"),
    ("CC(C)(C)CC(C)(C)c1cc(Cc2cc(C(C)(C)CC(C)(C)C)cc(-n3nc4ccccc4n3)c2O)c(O)c(-n2nc3ccccc3n2)c1 [Tinosorb M ®, reference compound]", "Condition not met"),
    ("CCCCC(CC)COc1ccc(-c2nc(-c3ccc(OC)cc3)nc(-c3ccc(OCC(CC)CCCC)cc3O)n2)c(O)c1 (stereo not shown) [Tinosorb S ®, reference compound]", "Condition not met"),
    ("Oc1ccccc1-c1nnc(-c2ccccc2)c(-c2ccccc2)n1", "Condition met"),
    ("Oc1ccc(-c2nnc(-c3ccccc3)c(-c3ccccc3)n2)cc1", "Condition met"),
]

====

Experiment: Spectral distribution in UVA and UVB (290-400 nm)
Format: physicochemical
Settings: range from 290 nm to 400 nm

# molecule, Spectral distribution
data = [
    ("COc1ccc(-c2nnc(-c3cccc(C#N)c3)nc2-c2ccc(OC)cc2)cc1", "absorb in UVB and UVA"),
    ("CC(C)(C)CC(C)(C)c1cc(Cc2cc(C(C)(C)CC(C)(C)C)cc(-n3nc4ccccc4n3)c2O)c(O)c(-n2nc3ccccc3n2)c1 [Tinosorb M ®, reference compound]", "absorb in UVB and UVA"),
    ("CCCCC(CC)COc1ccc(-c2nc(-c3ccc(OC)cc3)nc(-c3ccc(OCC(CC)CCCC)cc3O)n2)c(O)c1 (stereo not shown) [Tinosorb S ®, reference compound]", "absorb in UVB and UVA"),
]

====

Test: Spectral characteristics: molar extinction coefficient and specific absorbance
Assay type: physicochemical
Conditions: ethyl acetate, 10 μg/ml
endpoint label: Wavelength of maximum specific absorbance UVC

# molecule, endpoint value
records = [
    ("COc1ccc(-c2nnc(-c3ccccc3O)nc2-c2ccc(OC)cc2)cc1", "at 280"),
    ("COc1ccc(C(=O)CC(=O)c2ccc(C(C)(C)C)cc2)cc1 [Parsol 1789 ®, reference compound]", 275),
    ("Oc1ccccc1-c1nnc(-c2ccccc2)c(-c2ccccc2)n1", "at 280"),
    ("COc1ccc(-c2nnc(-c3ccc(C#N)cc3)nc2-c2ccc(OC)cc2)cc1", 270),
    ("COc1ccc(-c2nnc(N)nc2-c2ccc(OC)cc2)cc1", "at 280"),
    ("Oc1ccc(-c2nnc(-c3ccccc3)c(-c3ccccc3)n2)cc1", "at 280"),
]

====

Some compounds, each annotated with its measured Maximum molar extinction coefficient UVC.
Assay: Spectral characteristics: molar extinction coefficient and specific absorbance
Format: physicochemical
Details: ethyl acetate, 10 μg/ml
endpoint label: Maximum molar extinction coefficient UVC (M⁻¹ cm⁻¹)

# smiles notation, endpoint label, endpoint value
records = [
    ("COc1ccc(-c2nnc(N)nc2-c2ccc(OC)cc2)cc1", "Maximum molar extinction coefficient UVC", 19300),
    ("Oc1ccccc1-c1nnc(-c2ccccc2)c(-c2ccccc2)n1", "Maximum molar extinction coefficient UVC", 26300),
    ("COc1ccc(-c2nnc(-c3ccccc3O)nc2-c2ccc(OC)cc2)cc1", "Maximum molar extinction coefficient UVC", 19300),
    ("Oc1ccc(-c2nnc(-c3ccccc3)c(-c3ccccc3)n2)cc1", "Maximum molar extinction coefficient UVC", 22800),
    ("COc1ccc(-c2nnc(-c3ccc(C#N)cc3)nc2-c2ccc(OC)cc2)cc1", "Maximum molar extinction coefficient UVC", 25800),
]

====

Test: Photostability in solution in a chemical solvent (Suntest CPS+)
Assay type: physicochemical
Details: 25 μg deposited from methanol, Suntest irradiation 10 MED, absorbance vs non-irradiated control; in % (unit assumed)
# cutoff 80 applies to Photostability at 10 MED mean; >= gives Fulfilled, < gives Not fulfilled

# molecule, class
rows = [
    ("COc1ccc(-c2nnc(-c3cc(O)c(O)c(O)c3)nc2-c2ccc(OC)cc2)cc1", "Not fulfilled"),
    ("COc1ccc(-c2nnc(-c3ccc(O)cc3)nc2-c2ccc(OC)cc2)cc1", "Fulfilled"),
    ("CCN(CC)c1ccc(-c2nnc(O)nc2-c2ccc(N(CC)CC)cc2)cc1", "Fulfilled"),
    ("COc1ccc(-c2nnc(-c3ccc(C#N)cc3)nc2-c2ccc(OC)cc2)cc1", "Not fulfilled"),
    ("COc1ccc(-c2nnc(-c3cccc(C#N)c3)nc2-c2ccc(OC)cc2)cc1", "Fulfilled"),
    ("CCCCC(CC)COC(=O)C=Cc1ccc(OC)cc1 (stereo not drawn) [Parsol MCX ®, reference compound]", "Not fulfilled"),
    ("COc1ccc(-c2nnc(-c3ccccc3C#N)nc2-c2ccc(OC)cc2)cc1", "Fulfilled"),
    ("COc1ccc(C(=O)CC(=O)c2ccc(C(C)(C)C)cc2)cc1 [Parsol 1789 ®, reference compound]", "Not fulfilled"),
    ("COc1ccc(-c2nnc(N)nc2-c2ccc(OC)cc2)cc1", "Not fulfilled"),
]

====

Test: Photostability in solution in a chemical solvent (Suntest CPS+)
Assay type: physicochemical
Settings: 25 μg deposited from methanol, Suntest irradiation 10 MED, absorbance vs non-irradiated control; in % (unit assumed)
Method: A Suntest CPS+ (Atlas, Linsengenicht/Altenhasslan, Germany) was used. The Suntest makes it possible to reproduce the solar spectrum and thus to carry out exposures inside at any time without weather constraints. The radiance of the solar simulator was carefully measured with a spectroradiometer (MSS 2044, Bielefeld, Germany). UVB and UVA intensities were 0.49 mW/cm^2 and 6.32 mW/cm^2, respectively. […] The Suntest test duration is calculated using the following formula: t=H/E with: […]
Some compounds, each annotated with its measured Photostability at 10 MED mean.

# smiles notation, Photostability at 10 MED mean
rows = [
    ("Oc1ccc(-c2nnc(-c3ccccc3)c(-c3ccccc3)n2)cc1", 98.2),
    ("COc1ccc(-c2nnc(-c3ccccc3O)nc2-c2ccc(OC)cc2)cc1", 97.39),
    ("COc1ccc(-c2nnc(-c3ccc(OC)cc3)c(-c3ccc(OC)cc3)n2)cc1", 44.51),
]
